Cited source: patent US9670211B2

Can you tell me EC50 for the items I'm about to list?
System: RSV Long strain
PROCEDURE SUMMARY: Viral Cytopathic Effect (CPE) Assay
Type: cell-based
CONDITION DETAILS: human respiratory syncytial virus, 144 h; RSV Long strain (ATCC), cell viability after 6 days by Cell Counting kit-8
Give the value, in units of nM, as a plain number.

Q: Test system RSV Long strain; read-out EC50; what value for "O=C1N(Cc2nc3cc(Cl)ccc3n2[C@H]2C[C@H](O)C2)c2cnccc2C12CC2" ?
Result: 0.8

Q: Also "O=C1N(Cc2nc3cc(Cl)ccc3n2C2CC(F)(F)C2)c2cnccc2C12CC2" , if possible.
Result: 16

Q: Moving on to the next compound: CCN1CC(n2c(CN3C(=O)C4(CC4)c4ccncc43)nc3cc(Cl)ccc32)CC1=O (centres unmarked)
Result: 1.1

Q: Same thing, different compound: CC(C)(C)OC(=O)N1CCC(n2c(CN3C(=O)C4(CC4)c4ccncc43)nc3cc(Cl)ccc32)C1 (centres unmarked)
Result: 31

Q: Next up: O=C1CCC(n2c(CN3C(=O)C4(CC4)c4ccncc43)nc3cc(Cl)ccc32)CN1 (centres unmarked)
Result: 2
